target: Tyrosine-protein phosphatase non-receptor type substrate 1 (Homo sapiens) + Leukocyte surface antigen CD47 (Homo sapiens) (UniProt P78324+Q08722); assay: CD47-SIRPalpha protein protein interaction - Alpha assay qHTS validation (AID 1347059); conditions: AlphaScreen CD47-His/biotin-SIRPalpha binding, LOPAC; series mostly up to 38.3 µM;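 also: bead proximity luminescence from CD47 binding SIRPalpha after compound preincubation with SIRPalpha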
Sequence (P78324 whole entry, looked up): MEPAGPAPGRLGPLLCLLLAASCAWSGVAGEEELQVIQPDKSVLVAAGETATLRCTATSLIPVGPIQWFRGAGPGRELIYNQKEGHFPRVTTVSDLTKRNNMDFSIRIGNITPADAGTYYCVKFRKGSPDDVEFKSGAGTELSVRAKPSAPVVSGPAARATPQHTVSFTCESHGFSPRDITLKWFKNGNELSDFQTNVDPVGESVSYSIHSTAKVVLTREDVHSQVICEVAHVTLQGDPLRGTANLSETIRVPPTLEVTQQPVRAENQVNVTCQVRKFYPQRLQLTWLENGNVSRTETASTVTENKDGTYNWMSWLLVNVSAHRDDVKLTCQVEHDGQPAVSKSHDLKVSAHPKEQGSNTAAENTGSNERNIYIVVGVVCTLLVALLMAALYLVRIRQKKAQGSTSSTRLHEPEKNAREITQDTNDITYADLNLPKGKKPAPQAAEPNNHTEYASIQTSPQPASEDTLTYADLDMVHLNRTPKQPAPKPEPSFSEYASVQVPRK
Sequence (Q08722 whole entry, looked up): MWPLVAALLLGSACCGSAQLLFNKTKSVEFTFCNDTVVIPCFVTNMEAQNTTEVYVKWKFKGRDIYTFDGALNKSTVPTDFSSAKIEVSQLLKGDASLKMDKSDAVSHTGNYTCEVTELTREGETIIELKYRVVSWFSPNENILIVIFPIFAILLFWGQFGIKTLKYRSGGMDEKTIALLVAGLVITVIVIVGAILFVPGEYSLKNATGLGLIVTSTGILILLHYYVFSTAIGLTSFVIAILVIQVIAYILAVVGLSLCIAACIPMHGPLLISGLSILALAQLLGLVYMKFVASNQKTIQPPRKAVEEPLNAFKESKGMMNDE
Inconclusive results are not listed. Calls of active or inactive are those of the source. Calls follow the shape of the dose curve; as a rule, active = well fitted inhibition curve with a large enough effect; inconclusive = small, poorly fitted or top-dose-only effect; inactive = flat fitted curve, though single readings scatter.
Your reply should match one of these outcome classes. T (active), F (inactive)

// param item: Cc1c(OCC(F)(F)F)ccnc1CS(=O)c1nc2ccccc2[nH]1 (configuration not stated) ; yields the recorded call
F

Name the outcome recorded for c1cnc2cc3c(cc2n1)C1CNCC3C1 in the assay.
F

Record request — test call for Cc1cccc(-c2[nH]ncc2-c2ccc3ncccc3n2)n1
F

Which outcome was assigned to O=c1ccc2ccc(O)c(O)c2o1 in this test?
F

Hi, do you know how O=C1NC(=O)C(c2ccccc2[N+](=O)[O-])=C1Nc1ccc(O)c(Cl)c1 came out in this test?
F

State the result this test recorded for NCCCCNCCCN .
F

# fetch the recorded call for COc1cc2c(cc1OC)C1CC(=O)C(CC(C)C)CN1CC2 (configuration not stated) here
F

// param item: O=Nc1c(-c2c(O)[nH]c3cc(Br)ccc23)[nH]c2ccccc12 ; yields the recorded call
T

Value source: PubChem BioAssay (NCATS)
